Hey, just so you know, these numbers are from patent US8586755B2.

- ASSAYED SYSTEM: KCNQ2/3 channels (Homo sapiens, UniProt O43525+O43526)
- Construct: expressed in transfected cells
- ASSAY COMMENT: Fluorescence assay using a voltage sensitive dye (fluorimetry)
- Assay type: cell-based
- EXPERIMENTAL SETUP: CHO-K1 cells expressing KCNQ2/3 channels; retigabine 50 μM = 100%; read-out: Fluorimetry % efficacy (retigabine 50 μM = 100%)
MEASURED ATTRIBUTE: Emax (%)
Give bare numbers, in %.

// solved cases for Emax follow
[[record]]
compound = "O=C(NCc1ccc2c(c1)OCC2)c1cccnc1SCCCc1ccc(F)cc1 [compound 139]"
measured_attribute = "Emax"
result_unit = "%"
test_result = 81

[[record]]
compound = "O=C(NCc1ccco1)c1cccnc1SCCCc1ccc(F)cc1 [compound 174]"
measured_attribute = "Emax"
result_unit = "%"
test_result = 213

[[record]]
compound = "O=C(NCc1ccc(O)cc1)c1cccnc1SCCCc1ccc(F)cc1 [compound 88]"
measured_attribute = "Emax"
result_unit = "%"
test_result = 53


Look at each compound and report its Emax.
1. CC(C)CCNC(=O)c1cccnc1SC(C)CCc1ccc(F)cc1 (centres unmarked) [compound 177]
2. CC(C)CCCSc1ncccc1C(=O)NCC1CC2CCC1C2 (centres unmarked) [compound 28]
3. CC(C)(CCNC(=O)c1cccnc1SCCCc1ccc(F)cc1)c1ccccc1 [compound 163]
4. COC(=O)c1cccc(CNC(=O)c2cccnc2SCCCc2ccc(F)cc2)c1 [compound 129]

1. 192
2. 192
3. 89
4. 122

Look at each compound and report its Emax.
1. O=C(NCc1cccs1)c1cccnc1SCCCc1cccs1 [compound 104]
2. CC(CCc1cccc(C(F)(F)F)c1)Sc1ncccc1C(=O)NCc1ccc(F)cc1 (centres unmarked) [compound 132]
3. O=C(NCC1CC2CCC1C2)c1cccnc1SCCCc1cc(F)c(F)cc1F (centres unmarked) [compound 92]
4. COC(=O)CCNC(=O)c1cccnc1SCCC(F)(F)c1ccc(F)cc1 [compound 196]
5. O=C(NCCCn1cncn1)c1cccnc1SCCCc1ccc(F)cc1 [compound 157]

1. 87
2. 120
3. 270
4. 190
5. 88

Look at each compound and report its Emax.
1. O=C(NCCCn1ccnn1)c1cccnc1SCCCc1ccc(F)cc1 [compound 141]
2. O=C(NCC1CCCCO1)c1cccnc1SCCCc1ccc(F)cc1 (centres unmarked) [compound 134]
3. O=C(NCC1CC2CCC1C2)c1cccnc1SCCCc1cc(F)cc(F)c1 (centres unmarked) [compound 61]
4. CC(C)(C)CCNC(=O)c1cccnc1SCCC(F)(F)c1ccc(F)cc1 [compound 116]
5. O=C(NCc1ccc(F)cc1)c1cccnc1SCCC(F)(F)c1ccc(F)c(F)c1 [compound 204]

[86, 224, 283, 186, 125]

====

- ASSAYED SYSTEM: KCNQ2/3 channels (Homo sapiens, UniProt O43525+O43526)
- ASSAY COMMENT: Fluorescence assay using a voltage sensitive dye (fluorimetry)
- EXPERIMENTAL SETUP: CHO-K1 cells expressing KCNQ2/3 channels, agonistic activity
I'd appreciate it if you could supply EC50 values for the items below.
Numbers only, in µM.

// solved cases for EC50 follow
[[record]]
molecule = "O=C(NCc1ccc(O)cc1)c1cccnc1SCCCc1ccc(F)cc1"
measured_attribute = "EC50"
test_result = 3.76

[[record]]
molecule = "O=C(NCC1CC2CCC1C2)c1cccnc1SCCCc1ccc(Cl)cc1 (stereo not drawn)"
measured_attribute = "EC50"
test_result = 0.242

[[record]]
molecule = "O=C(NCC1CC2CCC1C2)c1cccnc1SCCOc1ccc(F)cc1 (stereo not drawn)"
measured_attribute = "EC50"
test_result = 0.231

[[record]]
molecule = "O=C(NCCCn1cccn1)c1cccnc1SCCCc1ccc(F)cc1"
measured_attribute = "EC50"
test_result = 3.14

[[record]]
molecule = "O=C(NCc1cccs1)c1ccc(N2CCCC2)nc1SCCCc1ccccc1"
measured_attribute = "EC50"
test_result = 0.494


Look at each molecule and report its EC50.
1. O=C(NCCc1ccccn1)c1cccnc1SCCCc1ccc(F)cc1
2. CC(C)CCNC(=O)c1cccnc1SC(C)CCc1cccc(F)c1 (stereo not drawn)
3. O=C(NCc1ccncc1)c1cccnc1SCCCc1ccc(F)cc1
4. CC(CSc1ncccc1C(=O)NCc1cccs1)Sc1ccccc1 (stereo not drawn)
5. O=C(NCC1CCOC1)c1cccnc1SCCC(F)(F)c1ccc(F)cc1 (stereo not drawn)

[6.46, 0.071, 1.85, 0.074, 0.805]

Look at each molecule and report its EC50.
1. O=C(NCc1cccc(OC(F)(F)F)c1)c1cccnc1SCCCc1ccc(F)cc1
2. COC(C)CNC(=O)c1cccnc1SCCC(F)(F)c1ccc(F)cc1 (stereo not drawn)
3. CC(C)(C)CCNC(=O)c1cccnc1SCCC(F)(F)c1cccc(C(F)(F)F)c1
4. O=C(NCC1CC2CCC1C2)c1cccnc1SCCCc1ccc(O)cc1 (stereo not drawn)
5. O=C(NCC1CC2CCC1C2)c1cccnc1SCCCc1ccc(C(F)(F)F)cc1 (stereo not drawn)
6. O=C(NCC1CCCCCC1)c1cccnc1CCCS(=O)(=O)c1cccc(C(F)(F)F)c1
7. O=C(NCc1ccccc1O)c1cccnc1SCCCc1ccc(F)cc1

0.101
0.232
0.046
3.88
0.463
0.437
0.139
